This listing pairs compounds with measured %Inh.
# System: IRAK4;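 also: KINOMEscan kinase panel screen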
# MEASUREMENT_SETUP: concentration: 1 μM, replicates: in singlicate; n = 1
Write the answer as a number in %, unit excluded.

Here is how some compounds turned out for %Inh.
INSERT INTO assay_data (structure_smiles, property, measurement_unit, result_number) VALUES
  ('Oc1ccc2ncnc(Nc3ccc(OCc4ccccc4)cc3)c2c1', '%Inh', '%', 5),
  ('O=C(Nc1ccccc1)Nc1ccc(Oc2ccc3nccn3n2)cc1', '%Inh', '%', 0),
  ('CNc1nccc(-c2c(-c3ccc(F)cc3)ncn2C2CCN(C)CC2)n1', '%Inh', '%', 0),
  ('CCc1nc(-c2cccc(C)c2)c(-c2ccnc(NC(=O)c3ccccc3)c2)s1', '%Inh', '%', 6);

Dear colleague, I am looking for the recorded %Inh of the following compound: `CS(=O)(=O)CCNCc1nc(-c2ccc3ncnc(Nc4ccc(OCc5cccc(F)c5)c(Cl)c4)c3c2)cs1.Cl` 5
